Values from patent US20190047966A1

- Subject Of Test: human histamine H4 receptor (Homo sapiens, UniProt Q9H3N8)
- Construct: purchased PerkinElmer Inc; host or cells: CHO-K1
- Sequence (Q9H3N8 whole entry): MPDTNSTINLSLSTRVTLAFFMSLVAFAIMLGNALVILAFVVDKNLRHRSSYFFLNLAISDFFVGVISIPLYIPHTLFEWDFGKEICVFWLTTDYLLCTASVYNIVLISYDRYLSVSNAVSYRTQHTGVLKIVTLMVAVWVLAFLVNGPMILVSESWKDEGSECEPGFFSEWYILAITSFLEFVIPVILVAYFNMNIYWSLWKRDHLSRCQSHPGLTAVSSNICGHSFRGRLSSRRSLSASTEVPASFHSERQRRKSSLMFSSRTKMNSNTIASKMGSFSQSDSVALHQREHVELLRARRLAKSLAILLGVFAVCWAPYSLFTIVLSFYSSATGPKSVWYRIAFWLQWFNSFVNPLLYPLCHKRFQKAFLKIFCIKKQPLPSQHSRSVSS
- Assay Details: Evaluation of Human H4 Receptor Affinity ([3H]histamine binding)
- Stated Conditions: inhibition constant Ki, CHO-K1 membrane preparation, read-out: Evaluation of H4 Receptor Affinity
pKi: −log10 of the molar value. Where a name gives a salt, the structure may show the parent alone.
// reported pKi for each item listed

Example entries begin here.
{"columns": ["Molecule", "Result"],
 "data": [
  ["Nc1nc2c(c(N3CCN(CCO[C@H]4C[C@@H](C(=O)O)C4)CC3)n1)CCc1cc(OCc3ccc(OC(F)(F)F)c(F)c3)ccc1-2", "> 7.00"],
  ["CC(C)(C(=O)O)c1ccc(OCCN2CCN(c3nc(N)nc4c3CCc3cc(OCc5ccc(Cl)cc5)ccc3-4)CC2)cc1", "6.30 to 7.00"],
  ["Nc1nc2c(c(N3CCNCC3)n1)CCc1cc(NS(=O)(=O)c3ccc(OC(F)(F)F)cc3)ccc1-2 [Example 192, hydrochloride]", "> 7.00"]
]}

State the recorded pKi for this entry: `CCOC(=O)c1csc(COCCN2CCN(c3nc(N)nc4c3CCc3cc(OCc5ccc(Cl)cc5)ccc3-4)CC2)n1`
> 7.00

State the recorded pKi for this entry: `CN1CCN(c2nc(N)nc3c2CCc2cc(NC(=O)Nc4ccc(Cl)cc4)ccc2-3)CC1`
> 7.00

State the recorded pKi for this entry: `CN1CCN(c2nc(N)nc3c2CCc2cc(OCC4CCOCC4)ccc2-3)CC1`
6.30 to 7.00

State the recorded pKi for this entry: Nc1nc2c(c(N3CCN(CC(=O)NCCCC(=O)O)CC3)n1)CCc1cc(OCc3ccc(Cl)cc3)ccc1-2 [Example 125, dihydrochloride]
6.30 to 7.00
